For each entry below, report its cell viability value.
- Test system: myeloid leukemia patient primary cells Pat.13
- Assay name: cell viability (% survival relative to DMSO control); higher = less cytotoxic
- Condition label: 1000 nM; 72 h
Give the number first and the unit second.

Short answer for C=C(C=NNC(=N)N)NNC(=N)N [Mitoguazone] : cell viability was 50.8%

cell viability for COc1cc(/C=C/C(=O)N2CCC=CC2=O)cc(OC)c1OC [Piperlongumine] is 69%

Item: CCC(=O)N1CCN(c2ccc(-n3c(=O)ccc4cnc5ccc(-c6cnc7ccccc7c6)cc5c43)cc2C(F)(F)F)CC1 [Torin1] | cell viability: 43%

cell viability reading for C=C(C)[C@H]1Cc2c(ccc3c2O[C@@H]2COc4cc(OC)c(OC)cc4[C@@H]2C3=O)O1 [Rotenone] : 17.2%

These entries and their values trace back to the supplement of paper PMC8671470.
